Target: human HPK1 (MAP4K1) (Homo sapiens (Human))
Sequence (Q92918 17-274): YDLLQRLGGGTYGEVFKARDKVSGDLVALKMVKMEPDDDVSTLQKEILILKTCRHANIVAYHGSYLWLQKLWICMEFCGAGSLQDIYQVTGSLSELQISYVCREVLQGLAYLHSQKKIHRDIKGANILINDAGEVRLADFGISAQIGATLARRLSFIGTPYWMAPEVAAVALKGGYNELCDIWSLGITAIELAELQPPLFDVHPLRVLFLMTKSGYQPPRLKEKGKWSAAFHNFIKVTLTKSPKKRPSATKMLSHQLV
Experiment: HPK1 IC50 Assay (TR-FRET peptide phosphorylation)
Type: biochemical
Conditions: recombinant HPK1 kinase domain 0.15 nM, 10 μM ATP, 1 μM STK S1 peptide; geometric mean of multiple experiments
pIC50: −log10 of the molar value.
parameter_measured: pIC50

For orientation, consider the following solved cases.
molecule | numeric_value
CNC(=O)c1cc(Nc2nc(-c3ccc4c(c3)N(C3CC(N5CCC[C@H](C(F)F)C5)C3)C(=O)C4(C)C)cc3ncn(C(C)C)c23)ccc1C (some centres unmarked) [Example 105B] | 10.05
CCNC(=O)c1cc(Nc2nc(-c3ccc4c(c3)N([C@H]3C[C@@H](N5CCCCC5)C3)C(=O)C43CCN(C(=O)CC)CC3)cc3ncn(CC)c23)c(F)cc1C | 9.52
CNC(=O)c1cc(Nc2nc(-c3ccc4c(c3)N([C@H]3C[C@@H](N5C[C@H]6CC[C@@H]5C6)C3)C(=O)C43CCN(C(=O)C4COC4)CC3)cc3ncn(C4CC4)c23)ccc1C | 10.22
CCNC(=O)c1cc(Nc2nc(-c3cnc4c(c3)N([C@H]3C[C@@](C)(N5CCCCCC5)C3)C(=O)C4(C)C)cc3ncn(C(C)C)c23)c(F)c(F)c1Cl | 10.30
CNC(=O)c1cc(Nc2nc(-c3ccc4c(c3)N([C@H]3C[C@@H](N5CCCCC5)C3)C(=O)C43CCN(C(C)=O)CC3)cc3ncn(C4CC4)c23)c(F)cc1C | 9.52

(A) CC(C)NC(=O)c1cc(Nc2nc(-c3ccc4c(c3)N([C@H]3C[C@@H](N5CCCCC5)C3)C(=O)C4(C)C)cc3ncn(C(C)C)c23)c(F)cc1Cl
(B) CNC(=O)c1cc(Nc2nc(-c3ccc4c(c3)N([C@H]3C[C@@H](NC5CCC(F)(F)CC5)C3)C(=O)C4(C)C)cc3ncn(C(C)C)c23)ccc1C
(C) CNC(=O)c1cc(Nc2nc(-c3ccc4c(c3)N([C@H]3C[C@@H](N5CCCCC5)C3)C(=O)C43CCN(C(=O)[C@@H](C)O)CC3)cc3ncn(C4CC4)c23)ccc1C
List the 3 entries from lowest pIC50 to highest pIC50 value. Please list the labels in the order you were asked to rank them. A, B, C
(A: 9.70, B: 10.00, C: 10.30)

(P) Cc1ccc(Nc2nc(-c3ccc4c(c3)N([C@H]3C[C@@H](N5CCCCC5)C3)C(=O)C4(C)C)cc3ncn(C(C)C)c23)cc1C(=O)NC(CF)CF
(Q) CC[C@H](C)n1cnc2cc(-c3ccc4c(c3)N([C@H]3C[C@@H](N5CCC6(C5)CC6(F)F)C3)C(=O)C43CCN(C(C)=O)CC3)nc(Nc3ccc(C)c(C(=O)NC)c3)c21 (some centres unmarked)
Endpoint returns whichever of P and Q has the numerically higher pIC50. Which one? Tell me its label. P
(P: 10.10, Q: 9.70)
